Target: T1, AAV5 (adeno-associated virus 5, Assembled 60-mer capsid of VP1/VP2/VP3 (nested products of one cap gene), amine-coupled to a CM5 chip; the letters give one VP1 subunit only.)
T1 construct: also called adeno-associated virus serotype 5
Assay: SPR, AAV amine-coupled to CM5 chip
METRIC: Kd (nM)
Answer with a number only, understood to be in nM.

Inquiry: Using the record for A4-C4 (bispecific antibody) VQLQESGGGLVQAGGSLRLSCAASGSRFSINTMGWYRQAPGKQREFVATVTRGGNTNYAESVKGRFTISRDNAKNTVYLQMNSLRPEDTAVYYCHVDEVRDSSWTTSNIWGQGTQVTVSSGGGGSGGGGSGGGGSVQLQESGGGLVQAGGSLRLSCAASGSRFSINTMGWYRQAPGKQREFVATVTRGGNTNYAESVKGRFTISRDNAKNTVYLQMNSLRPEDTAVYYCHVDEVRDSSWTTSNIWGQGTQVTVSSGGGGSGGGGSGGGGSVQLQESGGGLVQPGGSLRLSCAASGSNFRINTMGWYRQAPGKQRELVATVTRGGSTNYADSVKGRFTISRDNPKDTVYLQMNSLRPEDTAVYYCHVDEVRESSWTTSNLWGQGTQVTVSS , report its Kd.
Reply text: 6.72
